system: CAOV3; assay: Primary qHTS to identify gynecologic anti-cancer compounds using libraries of approved drugs and bioactive compounds (AID 1345084); conditions: Gynecologic cancer cell panel viability, ATPlite luminescence, 48 h; series mostly up to 57.5 µM; further: nearly all actives have a fitted effect of over 55% in size
Results filed as inconclusive are left out. Active and inactive are the calls of the source. The call rests on the fitted dose curve; in most records, active means well fitted cell-killing curve with a large enough effect; inconclusive means small, poorly fitted or top-dose-only effect, or effect the other way; inactive means flat fitted curve, though single readings scatter.
Could you please pick one outcome from this set? true (1) for active, false (0) for inactive

Record excerpt, results attached:
C=C1/C(=C/C=C2\CCC[C@]3(C)[C@@H]([C@H](C)/C=C/[C@@H](C)C(C)C)CC[C@@H]23)C[C@@H](O)C[C@@H]1O    false (0)
C=CC(C)(C)C12CC3C(=O)N4C(CC5(C(C)(C)C=C)c6ccccc6NC45)C(=O)N3C1Nc1ccccc12 (stereo not drawn)    false (0)
CC(=O)C=C=C1C(C)(C)CC(O)CC1(C)O[C@@H]1O[C@H](CO[C@H]2OC[C@](O)(CO)[C@H]2O)[C@@H](O)[C@H](O)[C@H]1O (stereo partly drawn)    false (0)
CC(C)(C)NC(=O)[C@H]1CC[C@H]2[C@@H]3CC[C@H]4NC(=O)CC[C@]4(C)[C@H]3CC[C@]12C    false (0)

input: Called result for Nc1nc2c(ncn2C2OC3COP(=O)(O)OC3C2O)c(=O)[nH]1 (stereo not drawn)
output: false (0)

input: Called result for COc1cc(O)c2c(c1)/C=C/C[C@H](O)[C@H](O)C(=O)/C=C\C[C@H](C)OC2=O
output: true (1)

input: Called result for CCC(CC)(NC(=O)C(C)C)C(=O)N[C@@H](CCCN=C(N)N)C(=O)NC1(C(=O)NC(c2ccc(F)cc2)c2ccc(F)cc2)CCCC1
output: false (0)

input: Called result for CC(C)S(=O)(=O)c1ccc2nccc(Nc3ccc4scnc4c3)c2c1
output: false (0)

input: Called result for C[C@H]1CO[C@@H]2Cn3cc(C(=O)NCc4ccc(F)cc4F)c(=O)c(O)c3C(=O)N12
output: false (0)

input: Called result for c1ccc(-c2ccc(CNc3nc(-c4ccccn4)nnc3-c3ccccc3)cc2)cc1
output: true (1)

---

assay: P-glycoprotein substrates identified in KB-8-5-11 adenocarcinoma cell line, qHTS therapeutic library screen (AID 1346987); conditions: KB-8-5-11 (P-gp overexpressing) viability, CellTiter-Glo, 72 h; series mostly up to 44.5 µM; further: nearly all actives have a fitted effect of over 65% in size
Results filed as inconclusive are left out. Active and inactive are the calls of the source. Calls follow the shape of the dose curve; as a rule, active = well fitted inhibition curve with a large enough effect; inconclusive = small, poorly fitted or top-dose-only effect; inactive = flat fitted curve, though single readings scatter.
Could you please pick one outcome from this set? class 1 for active, class 0 for inactive

CC(=O)O[C@@H]1[C@@H](OC(C)=O)[C@H](C)O[C@@H](O[C@H]2[C@@H]3C=CO[C@@H](O[C@@H]4O[C@H](CO)[C@@H](O)[C@H](O)[C@H]4O)[C@@H]3[C@@]3(CO)O[C@@H]23)[C@@H]1OC(=O)/C=C/c1ccccc1    class 0

input: Called result for COc1cc(F)c(C(C)C)cc1-c1ccc(C(F)(F)F)cc1CN1C(=O)OC(c2cc(C(F)(F)F)cc(C(F)(F)F)c2)C1C (stereo not drawn)
output: class 0

input: Called result for O=C(Nc1ccc(-c2ccnc(Nc3ccc(N4CCOCC4)cc3)n2)cc1)C1CCCN1 (stereo not drawn)
output: class 1

input: Called result for CCCCCC(O)/C=C/C=O (stereo not drawn)
output: class 0

input: Called result for O=C1Nc2ccccc2-c2nc3ccccc3c(=O)n2-c2c(O)cccc21
output: class 0

input: Called result for CN(C)CCn1cc(-c2ccc(F)cc2)c(-n2cccc2)n1
output: class 0

input: Called result for O=C(CSc1nc2ccccc2c(=O)n1-c1ccccc1)Nc1ccc2c(c1)CCC2
output: class 0

input: Called result for COC1CC/C=C(\C)C(=O)Nc2cc(O)cc(c2)CC(C)CC(OC)C(O)C(C)/C=C(\C)C1OC(N)=O (stereo not drawn)
output: class 0

The origin of these recorded values is PubChem BioAssay (NCATS).
